- Test system: SK-MEL-28
- Protocol Notes: NCI tumour cell line growth inhibition, 48 h
Active and inactive are the calls of the source. Cut-off read from the data, not from the text of the source: active = GI50 up to about 1.1 µM and inactive = higher.
Tick one outcome: active, inactive

Consider the worked cases shown below.
Ask: Any idea what this test logged for `CCOC(=O)C1=C(O)C(=O)c2c(OC)ccc(OC)c2C1=O` ?
Reply: inactive

Ask: Any idea what this test logged for `CC(C)(C)c1ccc2c(c1)C#Cc1cc(C(C)(C)C)ccc1OCCCO2` ?
Reply: inactive

Ask: Any idea what this test logged for `Cc1ccccc1Nc1cn(CCOc2ccccc2)c(=O)n(CCOc2ccccc2)c1=O` ?
Reply: inactive

Ask: Any idea what this test logged for `C[N+](C)(C)CCC(=O)N1C/C(=C\c2ccccc2)C(=O)/C(=C/c2ccccc2)C1` ?
Reply: inactive

Ask: Any idea what this test logged for CCOC(=O)C12C3CCC1C2C(=O)C3 (stereo not given) ?
Reply: inactive

Ask: Any idea what this test logged for `C/N=C(\N)N/N=C(\C)c1ccc2oc3ccc(/C(C)=N/N/C(N)=N/C)cc3c2c1` ?
Reply: inactive

Ask: Any idea what this test logged for `O=S(=O)(O)/C(=N\c1cccc(Cc2ccccc2)c1)Nc1cccc(Cc2ccccc2)c1` ?
Reply: inactive

Ask: Any idea what this test logged for `CC1=C(CO)C2=C(C)C3(CC3)[C@@](C)(O)C(=O)C2=C1` ?
Reply: active

Further cases:
Ask: Any idea what this test logged for `O=[N+]([O-])c1ccc2nc(O)n[n+]([O-])c2c1` ?
Reply: inactive

Ask: Any idea what this test logged for `N#CCOc1cccc(C2(N3CC=CCC3)CCCCC2)c1` ?
Reply: inactive

----------
GI50: recorded values
- Tested on: DU-145
- Protocol Notes: NCI tumour cell line growth inhibition, 48 h
Activity calls are given as the source filed them. No stated cut-off is given here; in the data, active = GI50 up to about 1.1 µM and inactive = higher.

Ask: // fetch GI50; item: `CCOC(=O)Cc1nnc2c(-c3ccccc3)nc3ccccc3n12` ; system: DU-145
Reply: 33 µM (inactive)

Further cases:
Ask: // fetch GI50; item: `Cc1cccc(/N=N/c2c(C)nn(C(=O)CC(=O)Nc3ccc(Cl)cc3)c2C)c1` ; system: DU-145
Reply: > 100 µM (inactive)

Ask: // fetch GI50; item: `Cc1c(C)c2c(c(N)c1C#N)C(=O)N(CCN1CCNCC1)C2=O` ; system: DU-145
Reply: 29.4 µM (inactive)

Ask: // fetch GI50; item: `Cc1nc(Cc2n[nH]c(C)n2)n[nH]1` ; system: DU-145
Reply: > 100 µM (inactive)

Ask: // fetch GI50; item: `COC(=O)[C@@H]1[C@H]2CC[C@]3(C)[C@@H](OC(C)=O)CC[C@H]3[C@@H]2CC[C@H]1C(C)=O` ; system: DU-145
Reply: > 100 µM (inactive)

Ask: // fetch GI50; item: `CCOC(=O)/C(C#N)=C/Nc1c(C)n(C)n(-c2ccccc2)c1=O` ; system: DU-145
Reply: > 100 µM (inactive)

Ask: // fetch GI50; item: `Cc1nc(-c2ccc([N+](=O)[O-])cc2)cn2c1nc1ccccc12` ; system: DU-145
Reply: > 100 µM (inactive)

Ask: // fetch GI50; item: O=C(c1ccccc1)c1ccc2c(c1)nc1n2C(c2c(Cl)cccc2Cl)SC1 (stereo not given) ; system: DU-145
Reply: > 100 µM (inactive)

Ask: // fetch GI50; item: `O=c1[nH]cc(F)c(=O)[nH]1` ; system: DU-145
Reply: 9.29 µM (inactive)

Ask: // fetch GI50; item: `CSc1cc(Cl)c(C(=O)Nc2ccccc2)cc1S(=O)(=O)n1ccnc1O` ; system: DU-145
Reply: > 100 µM (inactive)

Hello, the source for this data is ChEMBL document CHEMBL1201862, in case you need it.
